Recorded values, source ChEMBL document CHEMBL5046305.

- assay-remarks: Ratio of unbound drug concentration in brain to blood in Sprague-Dawley rat at 1 mg/kg, iv measured after 15 mins by LC/MS/MS analysis
- Format: ADME, organism-based
- conditions: read-out: K(p,uu,brain)
What Kp uu at 0.25 h was measured for each of the following?

For Cc1cc(C)c(CN2CCc3c(Cl)cc(-c4c(C)noc4C)c(Cl)c3C2=O)c(=O)[nH]1 the compound record lists Kp uu at 0.25 h as < 0.003

# Kp uu at 0.25 h (compound: Cc1cc(C)n(C)c(=O)c1CN1CCc2c(Cl)cc(-c3c(C)noc3C)c(Cl)c2C1=O ) is 0.29
